Please go through the items and note down their IC50.
# Target System: Androgen receptor (Homo sapiens)
# Sequence (P10275 whole entry): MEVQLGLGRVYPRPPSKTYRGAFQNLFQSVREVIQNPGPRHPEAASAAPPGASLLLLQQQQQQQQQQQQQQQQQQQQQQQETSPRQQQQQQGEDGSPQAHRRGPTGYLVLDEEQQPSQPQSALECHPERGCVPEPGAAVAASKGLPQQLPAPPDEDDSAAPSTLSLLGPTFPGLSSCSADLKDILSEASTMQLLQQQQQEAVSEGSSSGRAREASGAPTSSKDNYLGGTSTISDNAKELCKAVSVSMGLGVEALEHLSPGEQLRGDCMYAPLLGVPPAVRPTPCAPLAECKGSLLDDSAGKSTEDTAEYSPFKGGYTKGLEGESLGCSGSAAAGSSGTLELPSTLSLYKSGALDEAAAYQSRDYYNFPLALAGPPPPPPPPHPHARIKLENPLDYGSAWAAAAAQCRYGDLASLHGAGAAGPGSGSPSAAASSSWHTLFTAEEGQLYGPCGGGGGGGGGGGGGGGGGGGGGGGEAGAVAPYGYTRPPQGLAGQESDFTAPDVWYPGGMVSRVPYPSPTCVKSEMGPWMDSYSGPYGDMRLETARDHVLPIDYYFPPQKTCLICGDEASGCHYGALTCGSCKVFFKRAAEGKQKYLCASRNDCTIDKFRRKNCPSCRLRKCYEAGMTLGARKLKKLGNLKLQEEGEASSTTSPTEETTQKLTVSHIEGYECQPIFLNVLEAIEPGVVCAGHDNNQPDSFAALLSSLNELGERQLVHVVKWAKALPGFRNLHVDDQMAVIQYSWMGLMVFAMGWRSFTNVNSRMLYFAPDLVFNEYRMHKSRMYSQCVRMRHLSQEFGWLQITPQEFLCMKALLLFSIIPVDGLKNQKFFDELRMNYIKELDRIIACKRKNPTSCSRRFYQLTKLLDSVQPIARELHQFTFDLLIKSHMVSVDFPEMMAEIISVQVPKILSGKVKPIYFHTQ
Give just the numeric value; nM need not be written.

Q. What does the record list as IC50 for `C=C[C@]12CCC(C)=CC1=CC[C@@H]1[C@@H]2CC[C@@]2(C)[C@H]1CC[C@]2(C)O` ?
A. 520

Q. Returns the measured IC50 for the input compound. Input: `C=C[C@]12CCC(CC)=CC1=CC[C@H]1[C@@H]3CC[C@H](O)[C@@]3(C)CC[C@@H]12`
A. 500

Q. Given the compound `CC1=CC2=CC[C@H]3[C@@H]4CC[C@H](O)[C@@]4(C)CC[C@@H]3[C@@]2(C)CC1` , what is its reported IC50?
A. 2250
